Read-out: Collagen I, COL1A1 (gene 1277)
Protocol notes: BSK_MyoF_CollagenI: BioMAP Diversity Plus: MyoF Assay for Collagen I Biomarker Activity (AID 2284238)
Experimental context: primary human lung fibroblasts
The source made the active and inactive calls. How the source made its calls: active means hit-call score of the fitted dose curve at least 0.9, where 1 is the maximum; inactive means score below 0.9.
Readout type: AC50

Below are worked cases with known answers.
CNS(=O)(=O)C(F)(F)C(F)(F)C(F)(F)C(F)(F)C(F)(F)C(F)(F)C(F)(F)C(F)(F)F : inactive
O=C(O)C(F)(F)C(F)(F)C(F)(F)C(F)(F)C(F)(F)C(F)(F)C(F)F : inactive
COC(F)(C(F)F)C(F)(F)F (stereo unspecified) : inactive
CC(C)CCCC(C)CCO (stereo unspecified) : 31.6 µM (active)
O=S(=O)(O)CCC(F)(F)C(F)(F)C(F)(F)C(F)(F)C(F)(F)C(F)(F)C(F)(F)C(F)(F)F : inactive
NC(=O)C(F)(F)C(F)(F)C(F)(F)C(F)(F)C(N)=O : inactive
NC(O)(C(F)(F)F)C(F)(F)F : inactive
OCC(O)CC(F)(F)C(F)(F)C(F)(F)C(F)(F)F (stereo unspecified) : inactive
O=C1c2c(O)ccc(Nc3ccc(CCO)cc3)c2C(=O)c2c([N+](=O)[O-])ccc(O)c21 : 28.9 µM (active)
CC(C)(C)c1cc(CCC(=O)NCCCCCCNC(=O)CCc2cc(C(C)(C)C)c(O)c(C(C)(C)C)c2)cc(C(C)(C)C)c1O : inactive

Let us move to another entry and its AC50.
Q: AC50 lookup needed for "O=C(O)C(F)(F)C(F)(F)C(F)(F)C(=O)O" , thanks.
Result: inactive

* * *

System under test: Transcription factor Sp1 (Homo sapiens)
Protocol notes: ATG_Sp1_CIS: Attagene CIS-FACTORIAL HepG2 Assay for human Specificity Protein 1 (Sp1) (AID 2282961)
Experimental context: HepG2 Sp1 cis-reporter transcription, actives raise or lower the signal
Activity calls are given as the source filed them. Rule for the calls: active = hit-call score of the fitted dose curve at least 0.9, where 1 is the maximum; inactive = score below 0.9.
Write down the outcome that applies. Available outcomes: active, inactive

CC(=O)CCC(C)C : inactive
NC(=O)C(F)(F)C(F)(F)C(F)(F)C(F)(F)C(F)(F)C(F)(F)C(F)(F)F : inactive
O=C1C=CC(=O)N1c1ccc(Cc2ccc(N3C(=O)C=CC3=O)cc2)cc1 : active
O=C(F)C1(F)C(F)(F)C(F)(F)C(F)(F)C(F)(F)C1(F)F : inactive
OCCCCl : inactive

Q: I would be grateful if you could indicate the recorded call for "C=C(C)C(=O)OCC(F)(F)C(F)(F)C(F)(F)C(F)F" .
Result: inactive

Q: Note, next up: CCC(=O)OC(C)c1ccccc1 (stereo not drawn)
Result: inactive

Q: Note, next up: "Cc1ccc(S(=O)(=O)C(I)I)cc1"
Result: active

* * *

Read-out: Interleukin-8 (IL8), CXCL8 (gene 3576)
Protocol notes: BSK_MyoF_IL8: BioMAP Diversity Plus: MyoF Assay for Interleukin-8 (IL8) Biomarker Activity (AID 2284261)
Experimental context: primary human lung fibroblasts
Activity calls are given as the source filed them. The calls were made as follows: active = hit-call score of the fitted dose curve at least 0.9, where 1 is the maximum; inactive = score below 0.9.
Write down the outcome that applies. Available outcomes: true (1) (active), false (0) (inactive)

NC(=O)C(F)(F)C(F)(F)C(F)(F)C(F)(F)C(F)(F)C(F)(F)C(F)(F)F : false (0)
Cc1ccc(S(=O)(=O)C(I)I)cc1 : false (0)
NCC(F)(F)C(F)(F)C(F)(F)C(F)(F)C(F)(F)C(F)(F)F : false (0)
CCOC(=O)CC(=O)C(F)(F)C(F)(F)F : false (0)
Cc1cc(O)c(C(C)(C)C)cc1C(C)(C)C : true (1)

Lab note: next compound to report on.
Q: I would be grateful if you could indicate the recorded call for "CCOC(C=C(C)CCC=C(C)C)OCC" .
Result: false (0)
